# Procedure text: Cytotoxic activity against human HepG2 cells assessed as cell viability at 100 ug/ml incubated for 24 hrs by MTT assay
# Assay type: cell-based
# Experimental setup: read-out: Activity
Recorded metric: viability at 24 h, 100 ug/ml

1. O=S(=O)(Nc1ccccn1)c1ccc(Nc2ccnc3cc(Cl)ccc23)cc1    57%
2. NS(=O)(=O)c1ccc(Nc2ccnc3cc(Cl)ccc23)cc1    65%
3. O=S(=O)(Nc1ncccn1)c1ccc(Nc2ccnc3cc(Cl)ccc23)cc1    75%
4. CCN(CC)CCCC(C)Nc1ccnc2cc(Cl)ccc12 (centres undefined) [CHLOROQUINE]    67%

----------
# Procedure text: Cytotoxic activity against human HeLa cells assessed as cell viability at 1000 ug/ml incubated for 24 hrs by MTT assay
# Format: cell-based
# Experimental setup: read-out: Activity
Recorded metric: viability at 24 h, 1000 ug/ml (%)

1. O=S(=O)(Nc1nccs1)c1ccc(Nc2ccnc3cc(Cl)ccc23)cc1    12
2. O=S(=O)(Nc1ncccn1)c1ccc(Nc2ccnc3cc(Cl)ccc23)cc1    22
3. Cc1cc(NS(=O)(=O)c2ccc(Nc3ccnc4cc(Cl)ccc34)cc2)no1    17
4. CCN(CC)CCCC(C)Nc1ccnc2cc(Cl)ccc12 (configuration not stated)    92
5. O=S(=O)(Nc1ccccn1)c1ccc(Nc2ccnc3cc(Cl)ccc23)cc1    11
6. NS(=O)(=O)c1ccc(Nc2ccnc3cc(Cl)ccc23)cc1    37
7. NNC(=O)c1cccnc1 [NICOTINIC ACID HYDRAZIDE]    25
